# assayed_system: UniProt:P61073
# assay_protocol: Ca2+-assay method 2 (Flexstation, SDF-1 induced calcium mobilization)
# Assay type: cell-based
# Parameters: expressed in transfected cells; host or cells: mouse pre-B cell line 300-19
# test_parameters: method 2 (Ex. 54-160), mouse pre-B cell line 300-19 with human CXCR4, 10 nM SDF-1; read-out: IC50 (nM) Ca^2+ assay
Bridge positions count the residues as written; N and C are the ends. Square brackets hold non-standard residues; d marks the D form. Peptide text beside a SMILES is read from it. 2Nal = N[C@@H](Cc1ccc2ccccc2c1)C(=O)O; Cit = NC(=O)NCCC[C@H](N)C(=O)O; Dab = NCC[C@H](N)C(=O)O
quantity_measured: IC50 (nM)
Give bare numbers, in nM.

Query string: Requested field: IC50. Item: N=C(N)NCCC[C@@H]1NC(=O)[C@@H]2CSSC[C@H](NC(=O)[C@H](Cc3c[nH]c4ccccc34)NC(=O)[C@H](CCCNC(=N)N)NC(=O)[C@H](CCCNC(=N)N)NC(=O)[C@H]3CCCN3C(=O)CNC1=O)C(=O)N[C@@H](Cc1ccc(O)cc1)C(=O)N[C@@H](CCCNC(N)=O)C(=O)N[C@@H](CCCCN)C(=O)N1CCC[C@@H]1C(=O)N1CCC[C@H]1C(=O)N[C@@H](Cc1ccccc1)C(=O)N[C@@H](CCCNC(=N)N)C(=O)N[C@@H](CCCNC(N)=O)C(=O)N2 [Ex. 107] (cyclo(FR[Cit]CRG[dP]RRWCY[Cit]K[dP]P); disulfide 4-11)
Result string: 3.8

Query string: // same read-out, input: C[C@@H](O)[C@@H]1NC(=O)[C@H]2CCCN2C(=O)CNC(=O)[C@H](CCCNC(=N)N)NC(=O)[C@@H]2CSSC[C@H](NC(=O)[C@H](Cc3ccc4ccccc4c3)NC(=O)[C@H](CCCNC(=N)N)NC1=O)C(=O)N[C@@H](Cc1ccc(O)cc1)C(=O)N[C@@H](CCC(N)=O)C(=O)N[C@@H](CCCCN)C(=O)N1CCC[C@@H]1C(=O)N1CCC[C@H]1C(=O)N[C@@H](Cc1ccc(O)cc1)C(=O)N[C@@H](CCCNC(=N)N)C(=O)N[C@@H](CCCNC(N)=O)C(=O)N2 [Ex. 56] (cyclo(YR[Cit]CRG[dP]TR[2Nal]CYQK[dP]P); disulfide 4-11)
Result string: 0.74

Query string: // same read-out, input: N=C(N)NCCC[C@@H]1NC(=O)[C@@H]2CSSC[C@H](NC(=O)[C@H](Cc3ccc4ccccc4c3)NC(=O)[C@H](CCCNC(=N)N)NC(=O)[C@H](Cc3ccc(O)cc3)NC(=O)[C@H]3CCCN3C(=O)CNC1=O)C(=O)N[C@@H](Cc1ccc(O)cc1)C(=O)N[C@@H](CCC(N)=O)C(=O)N[C@@H](CCCCN)C(=O)N1CCC[C@@H]1C(=O)N1CCC[C@H]1C(=O)N[C@@H](Cc1ccc(O)cc1)C(=O)N[C@@H](CCCNC(=N)N)C(=O)N[C@@H](CCCNC(N)=O)C(=O)N2 [Ex. 54] (cyclo(YR[Cit]CRG[dP]YR[2Nal]CYQK[dP]P); disulfide 4-11)
Result string: 6.9

Query string: // same read-out, input: C[C@@H]1NC(=O)[C@H](Cc2ccc(O)cc2)NC(=O)[C@@H]2CSSC[C@H](NC(=O)[C@H](CCCNC(N)=O)NC(=O)[C@H](CCCNC(=N)N)NC(=O)[C@H](Cc3ccc(O)cc3)NC(=O)[C@@H]3CCCN3C(=O)[C@H]3CCCN3C(=O)[C@H](CCCCN)NC1=O)C(=O)N[C@@H](CCCNC(=N)N)C(=O)NCC(=O)N1CCC[C@@H]1C(=O)N[C@@H](CCCNC(=N)N)C(=O)N[C@@H](CCCNC(=N)N)C(=O)N[C@@H](Cc1ccc3ccccc3c1)C(=O)N2 [Ex. 80] (cyclo(YR[Cit]CRG[dP]RR[2Nal]CYAK[dP]P); disulfide 4-11)
Result string: 2.9

Query string: // same read-out, input: C[C@@H](O)[C@@H]1NC(=O)[C@H](CCCNC(=N)N)NC(=O)[C@H](Cc2ccc(O)cc2)NC(=O)[C@@H]2CCCN2C(=O)[C@H]2CCCN2C(=O)[C@H](CCCCN)NC(=O)[C@H](CCC(N)=O)NC(=O)[C@H](Cc2ccc(O)cc2)NC(=O)[C@@H]2CSSC[C@H](NC1=O)C(=O)N[C@@H](CCCNC(=N)N)C(=O)NCC(=O)N1CCC[C@@H]1C(=O)N[C@@H](CCN)C(=O)N[C@@H](CCCNC(=N)N)C(=O)N[C@@H](Cc1ccc3ccccc3c1)C(=O)N2 [Ex. 104] (cyclo(YRTCRG[dP][Dab]R[2Nal]CYQK[dP]P); disulfide 4-11)
Result string: 7.4

Query string: // same read-out, input: N=C(N)NCCC[C@@H]1NC(=O)[C@@H]2CSSC[C@H](NC(=O)[C@H](Cc3ccc4ccccc4c3)NC(=O)[C@H](CCCNC(=N)N)NC(=O)[C@H](CCCNC(=N)N)NC(=O)[C@H]3CCCN3C(=O)CNC1=O)C(=O)N[C@@H](Cc1ccc(O)cc1)C(=O)N[C@@H](CCC(N)=O)C(=O)N[C@@H](CCCCN)C(=O)N1CCC[C@@H]1C(=O)N1CCC[C@H]1C(=O)N[C@@H](Cc1c[nH]cn1)C(=O)N[C@@H](CCCNC(=N)N)C(=O)N[C@@H](CCCNC(N)=O)C(=O)N2 [Ex. 64] (cyclo(HR[Cit]CRG[dP]RR[2Nal]CYQK[dP]P); disulfide 4-11)
Result string: 3.3

Query string: // same read-out, input: N=C(N)NCCC[C@@H]1NC(=O)[C@@H]2CSSC[C@H](NC(=O)[C@H](Cc3ccc4ccccc4c3)NC(=O)[C@H](CCCNC(=N)N)NC(=O)[C@H](CCCNC(=N)N)NC(=O)[C@H]3CCCN3C(=O)CNC1=O)C(=O)N[C@@H](Cc1ccc(O)cc1)C(=O)N[C@@H](CCC(N)=O)C(=O)N[C@@H](CCCCN)C(=O)N1CCC[C@@H]1C(=O)N1CCC[C@H]1C(=O)N[C@@H](Cc1ccc(O)cc1)C(=O)N[C@@H](CCCNC(=N)N)C(=O)N[C@@H](Cc1c[nH]c3ccccc13)C(=O)N2 [Ex. 73] (cyclo(YRWCRG[dP]RR[2Nal]CYQK[dP]P); disulfide 4-11)
Result string: 8.8

We now examine a further compound.
Query string: Requested field: IC50. Item: N=C(N)NCCC[C@@H]1NC(=O)[C@@H]2CSSC[C@H](NC(=O)[C@H](Cc3ccc4ccccc4c3)NC(=O)[C@H](CCCNC(=N)N)NC(=O)[C@H](CCCNC(=N)N)NC(=O)[C@H]3CCCN3C(=O)CNC1=O)C(=O)N[C@@H](Cc1ccc(O)cc1)C(=O)N[C@@H](CCC(N)=O)C(=O)N[C@@H](CCCCN)C(=O)N1CCC[C@@H]1C(=O)N1CCC[C@H]1C(=O)N[C@@H](CCC(N)=O)C(=O)N[C@@H](CCCNC(=N)N)C(=O)N[C@@H](CCCNC(N)=O)C(=O)N2 [Ex. 62] (cyclo(QR[Cit]CRG[dP]RR[2Nal]CYQK[dP]P); disulfide 4-11)
Result string: 1.8

---

# assay_protocol: in vitro
# test_parameters: human, HELA cells (Acc57)
Square brackets hold non-standard residues; d marks the D form. Peptide text beside a SMILES is read from it. 2Nal = N[C@@H](Cc1ccc2ccccc2c1)C(=O)O; Cit = NC(=O)NCCC[C@H](N)C(=O)O
quantity_measured: CC50 at 48 h (µM)
Give bare numbers, in µM.

Query string: Requested field: CC50 at 48 h. Item: CC(C)[C@@H]1NC(=O)[C@H](Cc2ccc3ccccc3c2)NC(=O)[C@H](CCCNC(=N)N)NC(=O)[C@H](CCCNC(=N)N)NC(=O)[C@H]2CCCN2C(=O)[C@H](C(C)C)NC(=O)[C@H](CCCNC(=N)N)NC(=O)[C@H](Cc2ccccc2)NC(=O)[C@H](CCCNC(N)=O)NC(=O)[C@H](CCCNC(=N)N)NC(=O)[C@H](Cc2ccc(O)cc2)NC(=O)[C@@H]2CCCN2C(=O)[C@H]2CCCN2C(=O)[C@H](CCCCN)NC(=O)[C@H](CCCNC(N)=O)NC(=O)[C@H](Cc2ccc(O)cc2)NC1=O [compound 21] (cyclo(YR[Cit]FRV[dP]RR[2Nal]VY[Cit]K[dP]P))
Result string: 114

---

# assayed_system: CXCR4 (Homo sapiens)
# Sequence (P61073 whole entry): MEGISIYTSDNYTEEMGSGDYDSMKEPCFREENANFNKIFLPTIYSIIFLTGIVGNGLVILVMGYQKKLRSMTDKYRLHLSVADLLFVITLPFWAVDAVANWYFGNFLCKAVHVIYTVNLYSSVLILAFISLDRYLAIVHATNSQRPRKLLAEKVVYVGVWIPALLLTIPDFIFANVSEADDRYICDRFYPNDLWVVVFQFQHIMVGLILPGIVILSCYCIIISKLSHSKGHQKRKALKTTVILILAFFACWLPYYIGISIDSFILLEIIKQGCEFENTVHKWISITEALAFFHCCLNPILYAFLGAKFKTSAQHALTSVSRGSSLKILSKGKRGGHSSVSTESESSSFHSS
# assay_protocol: Ca2+-assay method 1: CXCR4-antagonizing activity
# Type: cell-based
# Parameters: expressed in transfected cells
# test_parameters: method 1 (Ex. 1-53), CXCR4 transfected pre-B cells, Fura-2; read-out: IC50 (nM) Ca^2+ assay
Bridge positions count the residues as written; N and C are the ends. Square brackets hold non-standard residues; d marks the D form. Peptide text beside a SMILES is read from it. 2Nal = N[C@@H](Cc1ccc2ccccc2c1)C(=O)O; Cit = NC(=O)NCCC[C@H](N)C(=O)O
Decide using IC50 alone. Strictly below 1000 nM: TRUE. Equal to or above 1000 nM: FALSE.

Look over these answered cases.
Query string: I'd appreciate it if you could check whether CC(C)[C@@H]1NC(=O)[C@H](Cc2ccc3ccccc3c2)NC(=O)[C@H](CCCNC(=N)N)NC(=O)[C@@H](CCCNC(=N)N)NC(=O)[C@H](CCCNC(=N)N)NC(=O)[C@H](C(C)C)NC(=O)[C@H](CCCNC(N)=O)NC(=O)[C@H](CCCNC(=N)N)NC(=O)[C@H](Cc2ccc(O)cc2)NC(=O)[C@@H]2CCCN2C(=O)[C@H]2CCCN2C(=O)[C@H](CCCCN)NC(=O)[C@H](CCCNC(N)=O)NC(=O)[C@H](Cc2ccc(O)cc2)NC1=O [compound 2] (cyclo(YR[Cit]VR[dR]R[2Nal]VY[Cit]K[dP]P)) has IC50 smaller than 1000 nM.
Result string: FALSE

Query string: // same read-out, input: CC(C)[C@@H]1NC(=O)[C@H](CCCNC(N)=O)NC(=O)[C@H](CCCNC(=N)N)NC(=O)[C@H](Cc2ccc(O)cc2)NC(=O)[C@@H]2CCCN2C(=O)[C@H]2CCCN2C(=O)[C@H](CCCCN)NC(=O)[C@H](CCCNC(N)=O)NC(=O)[C@H](Cc2ccc(O)cc2)NC(=O)[C@H](Cc2ccccc2)NC(=O)[C@H](Cc2ccc3ccccc3c2)NC(=O)[C@H](CCCNC(=N)N)NC(=O)[C@@H](CCCNC(=N)N)NC(=O)[C@H](CCCNC(=N)N)NC1=O [Ex. 1] (cyclo(YR[Cit]VR[dR]R[2Nal]FY[Cit]K[dP]P))
Result string: FALSE

Query string: // same read-out, input: CC(C)[C@@H]1NC(=O)[C@H](CCCNC(N)=O)NC(=O)[C@H](CCCNC(=N)N)NC(=O)[C@H](Cc2ccc(O)cc2)NC(=O)[C@@H]2CCCN2C(=O)[C@H]2CCCN2C(=O)[C@H](CCCCN)NC(=O)[C@H](CCCNC(N)=O)NC(=O)[C@H](Cc2ccc(O)cc2)NC(=O)[C@H](Cc2ccccc2)NC(=O)[C@H](Cc2ccc3ccccc3c2)NC(=O)[C@H](CCCNC(=N)N)NC(=O)[C@H](CCCNC(=N)N)NC(=O)[C@H]2CCCN2C(=O)[C@H](C(C)C)NC(=O)[C@H](CCCNC(=N)N)NC1=O [compound 32] (cyclo(YR[Cit]VRV[dP]RR[2Nal]FY[Cit]K[dP]P))
Result string: TRUE

Query string: // same read-out, input: CC(C)[C@@H]1NC(=O)[C@H](Cc2ccc3ccccc3c2)NC(=O)[C@H](CCCNC(=N)N)NC(=O)[C@H](CCCNC(=N)N)NC(=O)[C@H]2CCCN2C(=O)[C@H](C(C)C)NC(=O)[C@H](CCCNC(=N)N)NC(=O)[C@H](Cc2ccccc2)NC(=O)[C@H](CCCNC(N)=O)NC(=O)[C@H](CCCNC(=N)N)NC(=O)[C@H](Cc2ccc(O)cc2)NC(=O)[C@@H]2CCCN2C(=O)[C@H]2CCCN2C(=O)[C@H](CCCCN)NC(=O)[C@H](CCCNC(N)=O)NC(=O)[C@H](Cc2ccc(O)cc2)NC1=O [compound 21] (cyclo(YR[Cit]FRV[dP]RR[2Nal]VY[Cit]K[dP]P))
Result string: TRUE

Query string: // same read-out, input: N=C(N)NCCC[C@@H]1NC(=O)[C@H](Cc2ccccc2)NC(=O)[C@H](CCCNC(N)=O)NC(=O)[C@H](CCCNC(=N)N)NC(=O)[C@H](Cc2ccc(O)cc2)NC(=O)[C@@H]2CCCN2C(=O)[C@H]2CCCN2C(=O)[C@H](CCCCN)NC(=O)[C@H](CCCNC(N)=O)NC(=O)[C@H](Cc2ccc(O)cc2)NC(=O)[C@H](Cc2ccccc2)NC(=O)[C@H](Cc2ccc3ccccc3c2)NC(=O)[C@H](CCCNC(=N)N)NC(=O)[C@H](CCCNC(=N)N)NC(=O)[C@H]2CCCN2C(=O)CNC1=O [compound 38] (cyclo(YR[Cit]FRG[dP]RR[2Nal]FY[Cit]K[dP]P))
Result string: TRUE

Continuing:
Query string: I'd appreciate it if you could check whether N=C(N)NCCC[C@@H]1NC(=O)CNC(=O)CNC(=O)[C@H](CCCNC(=N)N)NC(=O)[C@@H]2CSSC[C@H](NC(=O)[C@H](Cc3ccc4ccccc4c3)NC(=O)[C@H](CCCNC(=N)N)NC1=O)C(=O)N[C@@H](Cc1ccc(O)cc1)C(=O)N[C@@H](CCCNC(N)=O)C(=O)N[C@@H](CCCCN)C(=O)N1CCC[C@@H]1C(=O)N1CCC[C@H]1C(=O)N[C@@H](Cc1ccc(O)cc1)C(=O)N[C@@H](CCCNC(=N)N)C(=O)N[C@@H](CCCNC(N)=O)C(=O)N2 [Ex. 52] (cyclo(YR[Cit]CRGGRR[2Nal]CY[Cit]K[dP]P); disulfide 4-11) has IC50 smaller than 1000 nM.
Result string: TRUE

Query string: // same read-out, input: CC(C)[C@@H]1NC(=O)[C@H](CCCNC(=N)N)NC(=O)[C@@H]2CSSC[C@H](NC(=O)[C@H](Cc3ccc4ccccc4c3)NC(=O)[C@H](CCCNC(=N)N)NC(=O)[C@H](CCCNC(=N)N)NC(=O)CNC1=O)C(=O)N[C@@H](Cc1ccc(O)cc1)C(=O)N[C@@H](CCCNC(N)=O)C(=O)N[C@@H](CCCCN)C(=O)N1CCC[C@@H]1C(=O)N1CCC[C@H]1C(=O)N[C@@H](Cc1ccc(O)cc1)C(=O)N[C@@H](CCCNC(=N)N)C(=O)N[C@@H](CCCNC(N)=O)C(=O)N2 [compound 53] (cyclo(YR[Cit]CRVGRR[2Nal]CY[Cit]K[dP]P); disulfide 4-11)
Result string: TRUE
